# test target: Fibroblast growth factor receptor 2 (Homo sapiens)
# details: Compound concentration 20.0 uM
# Description: Thermal Shift Assay. Domain: start/stop: T457-E768
Classify: MET when ΔTm is strictly less than 0.2 °C; NOT MET when ΔTm is not.

[[record]]
substance_smiles = "O=C(CCCCCCC(=O)Nc1ccc([C@H]2O[C@@H](CSc3nc(-c4ccccc4)c(-c4ccccc4)o3)C[C@@H](c3ccc(CO)cc3)O2)cc1)NO"
classification = "MET"

[[record]]
substance_smiles = "CCC[C@H]1CNCc2c1[nH]c(=O)c(C#N)c2N1CCC2(CC1)CC2"
classification = "NOT MET"

[[record]]
substance_smiles = "N#Cc1cc2cc(CN3CCC(Nc4ncnc5sc(CC(F)(F)F)cc45)CC3)ccc2[nH]1"
classification = "MET"

[[record]]
substance_smiles = "Cc1[nH]c2c(N3CCO[C@H](CO)C3)c(C#N)c(C(F)(F)F)nc2c1Cl"
classification = "NOT MET"

[[record]]
substance_smiles = "CCCc1nc(C)c2c(=O)nc(-c3cc(S(=O)(=O)N4CCN(CC)CC4)ccc3OCC)[nH]n12"
classification = "NOT MET"

[[record]]
substance_smiles = "CC(C)c1cnc(CSc2cnc(NC(=O)C3CCNCC3)s2)o1"
classification = "NOT MET"

[[record]]
substance_smiles = "CC(=O)N[C@@H](CC(=O)O)C(=O)N[C@@H](CCC(=O)O)C(=O)N[C@H](C(=O)N[C@H](C=O)CC(=O)O)C(C)C"
classification = "MET"

[[record]]
substance_smiles = "CCC(=O)N[C@H]1CC[C@@H](C(=O)N(C)c2ccc(-c3nc4ccccc4o3)cc2)C1"
classification = "NOT MET"


QUERY: API: query returns whether the compound falls strictly under 0.2 °C in ΔTm. Query: COc1cc(-c2cn(C)c(=O)c3cnccc23)cc(OC)c1CN(C)C
RESULT: MET

QUERY: Lab log: compare recorded ΔTm with 0.2 °C; is it strictly lower for COc1cc(C)[nH]c(=O)c1CNC(=O)c1c(C)n([C@H](C)C2CCN(CC(F)(F)F)CC2)c2ccccc12 ?
RESULT: NOT MET

QUERY: Consider the compound C[C@]12O[C@H](C[C@]1(O)CO)n1c3ccccc3c3c4c(c5c6ccccc6n2c5c31)CNC4=O . Is its ΔTm strictly less than 0.2 °C?
RESULT: NOT MET

QUERY: Is it true that ΔTm reported for CC1(NC(=O)COc2cccc(-c3nc4c(c(Nc5ccc(-c6cn[nH]c6)cc5)n3)CN(C3CCC3)CC4)c2)CC1 is less than 0.2 °C?
RESULT: MET

====

# test target: Fibroblast growth factor receptor 2 (Homo sapiens) (UniProt P21802)
# Sequence (P21802 22-821 limits assumed): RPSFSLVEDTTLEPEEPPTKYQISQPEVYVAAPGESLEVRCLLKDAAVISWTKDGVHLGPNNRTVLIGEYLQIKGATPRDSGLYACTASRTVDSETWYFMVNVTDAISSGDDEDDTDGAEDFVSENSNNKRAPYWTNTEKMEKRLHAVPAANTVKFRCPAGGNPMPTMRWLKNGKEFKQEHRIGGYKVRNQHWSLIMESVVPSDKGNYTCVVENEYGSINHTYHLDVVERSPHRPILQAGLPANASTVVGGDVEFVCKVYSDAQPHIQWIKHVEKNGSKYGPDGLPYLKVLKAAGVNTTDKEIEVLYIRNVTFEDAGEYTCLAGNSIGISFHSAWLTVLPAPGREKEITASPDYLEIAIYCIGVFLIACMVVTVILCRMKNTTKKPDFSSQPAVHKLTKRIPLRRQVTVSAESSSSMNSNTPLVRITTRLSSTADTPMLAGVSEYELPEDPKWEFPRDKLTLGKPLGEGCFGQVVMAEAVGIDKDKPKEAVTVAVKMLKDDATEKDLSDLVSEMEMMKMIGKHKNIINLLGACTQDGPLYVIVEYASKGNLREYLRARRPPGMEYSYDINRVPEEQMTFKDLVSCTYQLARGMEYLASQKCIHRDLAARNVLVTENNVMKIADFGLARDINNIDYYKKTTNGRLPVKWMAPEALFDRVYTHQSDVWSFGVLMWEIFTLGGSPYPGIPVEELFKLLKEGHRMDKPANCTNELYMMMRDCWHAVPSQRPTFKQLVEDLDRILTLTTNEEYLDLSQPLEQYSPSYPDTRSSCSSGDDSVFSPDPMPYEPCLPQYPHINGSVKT
# details: Compound concentration 20.0 uM
observed property: ΔTm
Please answer using a numeric value trailed by its unit.

Before answering, review these 8 worked examples.
[[record]]
substance_smiles = "CC(C)(Sc1ccncc1-c1ccc(C#N)c2ccccc12)C(=O)O"
measurement = "0.42 °C"

[[record]]
substance_smiles = "O=C(NO)c1cccc(C(=O)NCCc2ccccc2)c1"
measurement = "0.41 °C"

[[record]]
substance_smiles = "Cn1c(=O)cc(N2CCC[C@@H](N)C2)n(Cc2cc(F)ccc2C#N)c1=O"
measurement = "0.72 °C"

[[record]]
substance_smiles = "CCS(=O)(=O)N1CC(CC#N)(n2cc(-c3ncnc4[nH]ccc34)cn2)C1"
measurement = "1.48 °C"

[[record]]
substance_smiles = "C[C@H]1CCCN1Cc1nc2cc(NC(=O)c3ccc4c(cnn4C)c3)ccc2[nH]1"
measurement = "0.51 °C"

[[record]]
substance_smiles = "CC/C(=C(/CC)c1ccc(O)cc1)c1ccc(O)cc1"
measurement = "-8.29 °C"

[[record]]
substance_smiles = "Cc1ccsc1C(=CCCN1CCC[C@@H](C(=O)O)C1)c1sccc1C"
measurement = "0.37 °C"

[[record]]
substance_smiles = "COc1ccc(CC[C@H]2CCC[C@@H](CCc3ccc(OC)cc3)N2C[C@@H](O)CO)cc1"
measurement = "-0.53 °C"


QUERY: # lookup: Fibroblast growth factor receptor 2 (Homo sapiens) (UniProt P21802) ΔTm, key = Cc1ncccc1-c1cnc(NCc2c(F)ccc3c2CCO3)n2cnnc12
RESULT: -0.09 °C

QUERY: Give ΔTm only, for CC(C)C(=O)SCCCCCCC(=O)Nc1nc(-c2ccccc2)cs1 , using Fibroblast growth factor receptor 2 (Homo sapiens) (UniProt P21802) data.
RESULT: 1.03 °C

QUERY: Provide ΔTm, system Fibroblast growth factor receptor 2 (Homo sapiens) (UniProt P21802), entry CCCCCn1c(C)c(C(=O)c2cccc3ccccc23)c2ccccc21
RESULT: 0.39 °C

QUERY: Enter measured ΔTm, system Fibroblast growth factor receptor 2 (Homo sapiens) (UniProt P21802), for the molecule shown: CCCOc1ccc(CCc2nc3cc(-c4c(C)noc4C)ccc3n2CCN2CCOCC2)cc1
RESULT: -0.48 °C

QUERY: State measured ΔTm of the molecule COc1ccccc1[C@H]1[C@H](C(=O)O)[C@H](c2ccccc2OC)[C@H]1C(=O)Oc1cccc2ccccc12 with Fibroblast growth factor receptor 2 (Homo sapiens) (UniProt P21802).
RESULT: -0.72 °C

QUERY: Find ΔTm for CC(C)(C)c1ccc(S(=O)(=O)NCc2ccc(C(=O)Nc3cccnc3)cc2)cc1 on Fibroblast growth factor receptor 2 (Homo sapiens) (UniProt P21802) and write it down.
RESULT: -0.54 °C

QUERY: State measured ΔTm of the molecule CC(C)c1c(-c2cnn(C(C)(C)C)c2)[nH]c2c(C#N)cnn2c1=O with Fibroblast growth factor receptor 2 (Homo sapiens) (UniProt P21802).
RESULT: 0.36 °C
